Data credit: patent US20060069132A1

# System: velvetleaf
# Assay comment: Test B pre-/postemergence herbicide test
# Type: in vivo, Abutilon theophrasti
# Test settings: postemergence, 125 g ai/ha; scale 0 to 100

{"Compound structure string": "CCOC(=O)c1ccnc(NC(=O)c2nn(C(C)(C)C)nc2C)c1", "Velvetleaf plant response rating": 0}
{"Compound structure string": "C=CCN(C(C)=O)C(=O)c1ccc(F)c(NC(=O)c2cc(C(C)(C)C)nn2CC)c1", "Velvetleaf plant response rating": 30}
{"Compound structure string": "CCN(CC)C(=O)c1cccc(NC(=O)c2nn(C(C)(C)C)nc2C)c1", "Velvetleaf plant response rating": 20}
{"Compound structure string": "C#CCOc1cccc(NC(=O)c2cc(C(C)(C)C)nn2CC)c1", "Velvetleaf plant response rating": 0}
{"Compound structure string": "Cc1nn(C(C)(C)C)nc1C(=O)Nc1cncc(C(=O)N(C)C)c1", "Velvetleaf plant response rating": 30}

###

# Test system: lambsquarters
# Assay comment: Test B pre-/postemergence herbicide test
# Type: in vivo, Chenopodium album
# Test settings: postemergence, 125 g ai/ha; scale 0 to 100

{"Compound structure string": "C=CCN(CC=C)C(=O)c1ccc(F)c(NC(=O)c2cc(C(C)(C)C)nn2CC)c1", "Lambsquarters plant response rating": 40}
{"Compound structure string": "C=CCN(CC=C)C(=O)c1cccc(NC(=O)c2nn(C(C)(C)C)nc2C)n1", "Lambsquarters plant response rating": 0}
{"Compound structure string": "C#CCOc1cccc(NC(=O)c2cc(C(C)(C)C)nn2CC)c1", "Lambsquarters plant response rating": 20}
{"Compound structure string": "CC(C)(C)n1nc(Br)c(C(=O)Nc2cccc(C(=O)N3CC=CC3)c2)n1", "Lambsquarters plant response rating": 40}

###

# Test system: barnyardgrass
# Assay comment: Test B pre-/postemergence herbicide test
# Type: in vivo, Echinochloa crus-galli
# Test settings: postemergence, 500 g ai/ha; visual rating, scale 0 (no effect) to 100 (complete control)
Some compounds, each annotated with its measured Barnyardgrass plant response rating.
Endpoint name: Barnyardgrass plant response rating

{"Compound": "CCn1nc(C(C)(C)C)cc1C(=O)Nc1cc(C(=O)N2CCCC2)ccc1F [Compound 242]", "Reported result": 60}
{"Compound": "C=CCNC(=O)c1cccc(NC(=O)c2sc(C(C)(C)C)nc2C)c1 [Compound 202]", "Reported result": 0}
{"Compound": "CCn1nc(C(C)(C)C)cc1C(=O)Nc1nc(C(=O)OC)ccc1OC [Compound 265]", "Reported result": 0}
{"Compound": "CCNC(=O)c1cc(C)cc(NC(=O)c2cc(C(C)(C)C)nn2CC)n1 [Compound 150]", "Reported result": 50}
{"Compound": "CC(=O)c1cc(NC(=O)c2cc(C(C)(C)C)nn2C)ccc1F [Compound 123]", "Reported result": 0}
{"Compound": "CCn1nc(C(C)(C)C)cc1C(=O)Nc1nc(OC)cc(SCF)n1 [Compound 167]", "Reported result": 0}
{"Compound": "C#CCN(C)C(=O)c1ccnc(NC(=O)c2cc(C(C)(C)C)nn2CC)c1 [Compound 160]", "Reported result": 10}
{"Compound": "CCn1nc(C(C)(C)C)cc1C(=O)Nc1cc(C#N)ccc1F [Compound 140]", "Reported result": 0}
{"Compound": "Cc1nc(C(C)(C)C)sc1C(=O)Nc1cccc(C(=O)NCC(F)(F)F)c1 [Compound 201]", "Reported result": 0}
{"Compound": "CCCc1nn(C(C)(C)C)cc1C(=O)Nc1cccc(C(=O)N(CC)CC)c1 [Compound 185]", "Reported result": 50}
{"Compound": "CCn1nc(C(C)(C)C)cc1C(=O)Nc1cccc(C#N)c1 [Compound 139]", "Reported result": 10}
